Biological target: Melanocortin receptor 4 (Homo sapiens)
Sequence (P32245 whole entry): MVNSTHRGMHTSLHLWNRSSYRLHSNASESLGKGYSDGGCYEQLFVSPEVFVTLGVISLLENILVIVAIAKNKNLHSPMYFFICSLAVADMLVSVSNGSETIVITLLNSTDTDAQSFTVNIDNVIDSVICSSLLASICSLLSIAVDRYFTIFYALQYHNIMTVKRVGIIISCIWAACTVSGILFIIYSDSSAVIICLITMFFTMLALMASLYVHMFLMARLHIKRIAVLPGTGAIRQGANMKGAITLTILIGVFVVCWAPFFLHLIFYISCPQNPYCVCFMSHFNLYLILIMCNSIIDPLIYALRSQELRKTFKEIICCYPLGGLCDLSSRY
Experiment: Intrinsic activity at human MC4R expressed in HEK293 cells assessed as cAMP accumulation relative to alphaMSH
Format: functional, cell-based
Attribute measured: Intrinsic activity (%)

P. Cc1ccc(N2CCN(C(=O)[C@@H]3CN(C(C)C)C[C@H]3c3ccc(Cl)cc3)CC2)c([C@H](C(C)C)N(C)C)c1
Q. Cc1ccc(N2CCN(C(=O)[C@@H]3CN(C(C)C)C[C@H]3c3ccc(Cl)cc3)CC2)c([C@@H](NC(=O)CN(C)C)C(C)C)c1
Returns: the label, P or Q , whose recorded Intrinsic activity is the lower number. Pick one; state its label. P

a. Cc1ccc(N2CCN(C(=O)[C@@H]3CN(C(C)C)C[C@H]3c3ccc(Cl)cc3)CC2)c([C@@H](NC(=O)CCN(C)C)C(C)C)c1
b. CC(C)[C@H](NC(=O)[C@@H](C)N)c1cccc(F)c1N1CCN(C(=O)[C@@H]2CN(C(C)C)C[C@H]2c2ccc(Cl)cc2)CC1
Returns: the label, a or b , whose recorded Intrinsic activity is the lower number. Pick one; state its label. b
(b: 70%, a: 102%)

* * *

Molecular target: Melanocortin receptor 4 (Homo sapiens)
Assay: Agonist activity at human MC4R expressed in HEK293 cells assessed as cAMP accumulation
pEC50: −log10 of the molar value.
Attribute measured: pEC50

Please review the following examples before continuing.
Chem smiles: CC(C)C[C@H](NC(=O)CCN(C)C)c1cc(C(F)(F)F)ccc1N1CCN(C(=O)[C@@H]2CN(C(C)C)C[C@H]2c2ccc(Cl)cc2)CC1
pEC50: 7.04
--
Chem smiles: CC(C)C[C@H](NC(=O)[C@@H](C)N)c1cc(C(F)(F)F)ccc1N1CCN(C(=O)[C@@H]2CN(C(C)C)C[C@H]2c2ccc(Cl)cc2)CC1
pEC50: 7.51
--
Chem smiles: CC(C)[C@H](N)c1cccc(F)c1N1CCN(C(=O)[C@@H]2CN(C(C)C)C[C@H]2c2ccc(Cl)cc2)CC1
pEC50: 6.57
--
Chem smiles: CC(C)C[C@H](NC(=O)CN)c1cc(C(F)(F)F)ccc1N1CCN(C(=O)[C@@H]2CN(C(C)C)C[C@H]2c2ccc(Cl)cc2)CC1
pEC50: 7.36
--
Chem smiles: CC(C)[C@H](NC(=O)CCN)c1cccc(F)c1N1CCN(C(=O)[C@@H]2CN(C(C)C)C[C@H]2c2ccc(Cl)cc2)CC1
pEC50: 8.16
--
Chem smiles: CC(C)N1C[C@@H](C(=O)N2CCN(c3ccccc3CN3CCC(N)CC3)CC2)[C@H](c2ccc(Cl)cc2)C1
pEC50: 6.41

P. CC(C)[C@H](NC(=O)[C@@H](C)N)c1cccc(F)c1N1CCN(C(=O)[C@@H]2CN(C(C)C)C[C@H]2c2ccc(Cl)cc2)CC1
Q. CC(C)C[C@H](N)c1cc(C(F)(F)F)ccc1N1CCN(C(=O)[C@@H]2CN(C(C)C)C[C@H]2c2ccc(Cl)cc2)CC1
Returns: the label, P or Q , whose recorded pEC50 is the lower number. Pick one; state its label. Q

1. CC(C)C[C@H](NC(=O)C1CNC1)c1cc(C(F)(F)F)ccc1N1CCN(C(=O)[C@@H]2CN(C(C)C)C[C@H]2c2ccc(Cl)cc2)CC1
2. Cc1ccc(N2CCN(C(=O)[C@@H]3CN(C(C)C)C[C@H]3c3ccc(Cl)cc3)CC2)c([C@@H](N)C(C)C)c1
3. CC(C)N1C[C@@H](C(=O)N2CCN(c3ccccc3Cn3ccnc3)CC2)[C@H](c2ccc(Cl)cc2)C1
Parameters: sort_field (pEC50), sort_dir (desc). The reply should contain the labels ordered as requested. 1, 2, 3
(1: 8.18, 2: 6.98, 3: 6.49)

1. CC(C)C[C@H](NC(=O)[C@H](C)N)c1cc(C(F)(F)F)ccc1N1CCN(C(=O)[C@@H]2CN(C(C)C)C[C@H]2c2ccc(Cl)cc2)CC1
2. CC(C)C[C@H](NS(C)(=O)=O)c1cc(C(F)(F)F)ccc1N1CCN(C(=O)[C@@H]2CN(C(C)C)C[C@H]2c2ccc(Cl)cc2)CC1
Returns: the label, 1 or 2 , whose recorded pEC50 is the lower number. Pick one; state its label. 2

Cited source: ChEMBL document CHEMBL1139763
